- System: PC-3
- assay.text: Antiproliferative activity against human PC-3 cells assessed as cell growth inhibition by SRB assay
- Type: functional, cell-based
measured.property: pIC50
Answers are plain numbers, as −log10 of the molar value.

Previously resolved entries follow.
[
  {
    "molecule": "CC1([N+](=O)[O-])C(=O)c2cc(F)ccc2OC1CC(=O)NC12CC3CC(CC(C3)C1)C2 (racemic)",
    "pIC50": 6.03
  },
  {
    "molecule": "C[C@]1([N+](=O)[O-])C(=O)c2cc(F)ccc2O[C@@H]1CC(=O)NC12CC3CC(CC(C3)C1)C2",
    "pIC50": 5.81
  }
]

For the molecule C[C@@]1([N+](=O)[O-])C(=O)c2cc(F)ccc2O[C@H]1CC(=O)NC12CC3CC(CC(C3)C1)C2 , what pIC50 is on record?
6.09

###

- Test system: SK-OV-3
- assay.text: Anti-proliferative activity against human SK-OV-3 cells assessed as cell growth inhibition incubated for 72 hrs by CCK-8 assay
- Assay type: functional, cell-based
- reported.conditions: SK-OV-3, 72 h
measured.property: IC50 (µM)
Give bare numbers, in µM.

If you can, please state the reported IC50 value of COc1ccc(-c2oc3cc(O)cc(O)c3c(=O)c2OCc2cn([C@@H]3O[C@H](COC(C)=O)[C@@H](OC(C)=O)[C@H](OC(C)=O)[C@H]3OC(C)=O)nn2)cc1O .
30.6
